The reported numbers originate from ChEMBL document CHEMBL5532664.

- ASSAY DETAILS: in vivo
- REPORTED CONDITIONS: Sprague-Dawley, rat, plasma, po, 5 mg/kg
- Description: Clearance in Sprague-Dawley rat plasma at 5 mg/kg, po measured upto 24 hrs by LC-MS/MS analysis
READOUT KIND: CL/F at 24 h (mL/min/kg)

(A) Cc1cc(-c2nc[nH]n2)ccc1Nc1ncc2c(n1)n(C1CCOCC1)c(=O)n2C
(B) Cc1cc(-c2cccs2)ncc1Nc1ncc2c(n1)n(C1CCOCC1)c(=O)n2C
Q. Given A and B , report the one with the higher recorded CL/F at 24 h. # respond with the chosen item's label
A. B

###

These records show IC50 for DNA-dependent protein kinase catalytic subunit (Homo sapiens).
READOUT KIND: IC50 (nM)

Would you please look over these solved cases?
{"columns": ["SMILES STR", "TESTED SYSTEM", "IC50 / nM"],
 "data": [
  ["Cc1nc(-c2ccnn2C)ccc1Nc1ncc2c(n1)n(C1CCOCC1)c(=O)n2C", "DNA-dependent protein kinase catalytic subunit (Homo sapiens)", 9.6],
  ["Cc1cc(-c2cnn(C)c2)ncc1Nc1ncc2c(n1)n(C1CCN(C(=O)C3CC3)CC1)c(=O)n2C", "DNA-dependent protein kinase catalytic subunit (Homo sapiens)", 3],
  ["Cc1ccc(-c2cnn(C)c2)cc1Nc1ncc2c(n1)n(C1CCOCC1)c(=O)n2C", "DNA-dependent protein kinase catalytic subunit (Homo sapiens)", 2]
]}

(1) Cc1cc(-c2ccc(C=O)o2)ncc1Nc1ncc2c(n1)n(C1CCOCC1)c(=O)n2C
(2) COC(=O)c1ccc2c(c1)CCN2c1ncc2c(n1)n(C1CCOCC1)c(=O)n2C
Q. IC50 comparison. Which is larger, 1 or 2 ? Please identify the chosen entry by its label.
A. 2

###

- Test system: HCT-116
- ASSAY DETAILS: Inhibition of colony formation in human HCT-116 cells preincubated with compound for 1 hr followed by exposure to 2 Gy gamma irradiation and measured after 7 days by crystal violet staining based chemiluminescence assay
- Assay type: functional, cell-based
- REPORTED CONDITIONS: HCT-116, light or radiation study
READOUT KIND: IC50 (nM)

{"columns": ["SMILES STR", "TESTED SYSTEM", "IC50 / nM"],
 "data": [
  ["COc1ccc(-c2cc(C)c(Nc3ncc4c(n3)n(C3CCOCC3)c(=O)n4C)cn2)cn1", "HCT-116", 79.3],
  ["Cc1cnc(-c2cnn(C)c2)cc1Nc1ncc2c(n1)n(C1CCOCC1)c(=O)n2C", "HCT-116", 27.5],
  ["Cc1cc2ncnn2cc1Nc1ncc2c(n1)n(C1CCOCC1)c(=O)n2C", "HCT-116", 38.1],
  ["Cc1cc(-c2cnn(C(F)F)c2)ncc1Nc1ncc2c(n1)n(C1CCOCC1)c(=O)n2C", "HCT-116", 68]
]}

(I) COc1ccc(-c2cc(C)c(Nc3ncc4c(n3)n(C3CCOCC3)c(=O)n4C)cn2)cc1OC
(II) Cc1cc(-c2cnn(C)c2)ncc1Nc1ncc2c(n1)n(C1CCOCC1)c(=O)n2C
(III) Cc1cc(-c2ccsc2)ncc1Nc1ncc2c(n1)n(C1CCOCC1)c(=O)n2C
(IV) Cc1cc(-c2cccs2)ncc1Nc1ncc2c(n1)n(C1CCOCC1)c(=O)n2C
(V) Cc1cc(-c2nc[nH]n2)ccc1Nc1ncc2c(n1)n(C1CCOCC1)c(=O)n2C
Q. List items by IC50 in falling order. Submit the labels in the order that the ranking request calls for.
A. V, I, II, IV, III
